For each of the molecules below, state its Activity.
Tested on: Syrian golden hamster
Experiment: Antihyperlipidemic activity measured by increase in cholesterol level in golden syrian hamster at 100 mg/kg, po relative to control
Format: functional, Mesocricetus auratus
Express it in %; write the number only.

[in] Could you share which Activity value was measured for OC[C@H]1O[C@@](CO)(O[C@H]2O[C@H](CO)[C@@H](O)[C@H](O)[C@H]2O)[C@@H](O[C@H]2O[C@H](CO)[C@@H](O)[C@H](O)[C@H]2O)[C@@H]1O ?
[out] 12

[in] Could you share which Activity value was measured for OC[C@H]1O[C@](O)(CO)[C@@H](O[C@H]2O[C@H](CO)[C@@H](O)[C@H](O)[C@@H]2O)[C@@H]1O ?
[out] 32

[in] Could you share which Activity value was measured for OC[C@H]1O[C@@H](O[C@H]2[C@H](O)[C@@H](CO)O[C@]2(O)CO)[C@H](O)[C@@H](O)[C@H]1O ?
[out] 52

[in] Could you share which Activity value was measured for OC[C@H]1O[C@](O)(CO)[C@@H](O[C@H]2OC[C@@H](O)[C@@H](O)[C@@H]2O)[C@@H]1O ?
[out] 4
